// provenance: the supplement of paper PMC10307832

tested on: LCLC-103H; test: relative viability (nuclei count vs DMSO), 5 days (fraction); higher = more cells survive; details: first compound 0.005 µM
Decision: relative viability beneath 0.7 gives Met; relative viability meeting or exceeding 0.7 gives Not met.

[
  {
    "molecule": "COc1cc2nccc(Oc3ccc(NC(=O)Nc4cc(C)on4)c(Cl)c3)c2cc1OC [Tivozanib] + O=C(CCCCCCC(=O)Nc1ccccc1)NO [Vorinostat] (partner 1 µM)",
    "classAssignment": "Met"
  },
  {
    "molecule": "COc1cc2nccc(Oc3ccc(NC(=O)Nc4cc(C)on4)c(Cl)c3)c2cc1OC [Tivozanib] + CCNC(=O)c1noc(-c2cc(C(C)C)c(O)cc2O)c1-c1ccc(CN2CCOCC2)cc1 [Luminespib] (partner 0.01 µM)",
    "classAssignment": "Not met"
  },
  {
    "molecule": "COc1cc2nccc(Oc3ccc(NC(=O)Nc4cc(C)on4)c(Cl)c3)c2cc1OC [Tivozanib] + CS(=O)(=O)N1CCN(Cc2cc3nc(-c4cccc5[nH]ncc45)nc(N4CCOCC4)c3s2)CC1 [Pictilisib] (partner 1 µM)",
    "classAssignment": "Met"
  },
  {
    "molecule": "Nc1ccn([C@@H]2O[C@H](CO)[C@@H](O)[C@@H]2O)c(=O)n1 [Cytarabine] + CS(=O)(=O)N1CCN(Cc2cc3nc(-c4cccc5[nH]ncc45)nc(N4CCOCC4)c3s2)CC1 [Pictilisib] (partner 1 µM)",
    "classAssignment": "Met"
  },
  {
    "molecule": "Nc1ccn([C@@H]2O[C@H](CO)[C@@H](O)[C@@H]2O)c(=O)n1 [Cytarabine] + CC(C)C[C@H](NC(=O)[C@H](Cc1ccccc1)NC(=O)c1cnccn1)B(O)O [Bortezomib] (partner 0.002 µM)",
    "classAssignment": "Not met"
  },
  {
    "molecule": "Nc1ccn([C@@H]2O[C@H](CO)[C@@H](O)[C@@H]2O)c(=O)n1 [Cytarabine] + O=C(CCCCCCC(=O)Nc1ccccc1)NO [Vorinostat] (partner 1 µM)",
    "classAssignment": "Not met"
  },
  {
    "molecule": "Nc1ccn([C@@H]2O[C@H](CO)[C@@H](O)[C@@H]2O)c(=O)n1 [Cytarabine] + CC(=O)c1c(C)c2cnc(Nc3ccc(N4CCNCC4)cn3)nc2n(C2CCCC2)c1=O [Palbociclib] (partner 0.5 µM)",
    "classAssignment": "Met"
  }
]

Ask | Take the molecule Nc1ccn([C@@H]2O[C@H](CO)[C@@H](O)[C@@H]2O)c(=O)n1 [Cytarabine] + CCNC(=O)c1noc(-c2cc(C(C)C)c(O)cc2O)c1-c1ccc(CN2CCOCC2)cc1 [Luminespib] (partner 0.01 µM) and say whether its relative viability is less than 0.7.
Reply | Not met
